- PROTOCOL_TEXT: chemical recovery into PDMS from spiked human plasma; higher = better extraction
- CONDITION_SUMMARY: pooled human plasma; extraction method: PES with PDMS; equilibration time (d): 3
Think of 20% as a floor: if chemical recovery into PDMS stands on it or above, it is Yes; beneath it, No.

Solved entries:
> print(dat)
                                   compound  discrete.label
1                    Oc1ccc(Cl)cc1Cc1ccccc1              No
2                  c1ccc2c(c1)[nH]c1cnccc12             Yes
3  CC(C)N(C(=O)COc1nnc(C(F)(F)F)s1)c1ccc(F)cc1             Yes
4  CCCN(CCC)c1c([N+](=O)[O-])cc(S(N)(=O)=O)cc1[N+](=O)[O-]              No
5  Cl[C@H]1[C@H](Cl)[C@@H](Cl)[C@@H](Cl)[C@H](Cl)[C@H]1Cl             Yes
6  C#C[C@]1(O)CC[C@H]2[C@@H]3CCC4=CC(=O)CC[C@@H]4[C@H]3CC[C@@]21C             Yes
7  CC(Cc1ccc(C(C)(C)C)cc1)CN1C[C@@H](C)O[C@@H](C)C1 (some centres undefined)              No
8  N#Cc1nn(-c2c(Cl)cc(C(F)(F)F)cc2Cl)c(N)c1[S+]([O-])C(F)(F)F (centres undefined)             Yes

Next compound, please.
Req: Quick check, chemical recovery into PDMS >= 20%? O=[N+]([O-])c1cc[n+]([O-])c2ccccc12 [4-Nitroquinoline-1-oxide]
Resp: No

====

Below: a set of entries, each annotated with reported chemical recovery by SPE of plasma.
- PROTOCOL_TEXT: chemical recovery by SPE of plasma after PDMS sampling; higher = better extraction
- CONDITION_SUMMARY: pooled human plasma; extraction method: HLB SPE of plasma after PES; equilibration time (d): 3
Respond with the bare value in %.

# count of solved cases: 4
MOLECULE	UNIT_LABEL	chemical recovery by SPE of plasma
Fc1ccc([C@]2(Cn3cncn3)O[C@H]2c2ccccc2Cl)cc1 (racemic)	%	0.628
O=C(O)c1cc(Oc2ccc(Cl)cc2Cl)ccc1[N+](=O)[O-] [Bifenox free acid]	%	40.7
COC(=O)Nc1nc2cc(C(=O)c3ccccc3)ccc2[nH]1	%	14
Cc1ccccc1N	%	1.92

Req: Given the molecule CC(C)(C)NC(=O)[C@H]1CC[C@H]2[C@@H]3CC[C@H]4NC(=O)C=C[C@]4(C)[C@H]3CC[C@]12C [Finasteride] , what is its reported chemical recovery by SPE of plasma?
Resp: 5.81

Req: Please give the measured chemical recovery by SPE of plasma for this molecule: CC[C@H]1OC(=O)C[C@@H](O)[C@H](C)[C@@H](O[C@@H]2O[C@H](C)[C@@H](O[C@H]3C[C@@](C)(O)[C@@H](O)[C@H](C)O3)[C@H](N(C)C)[C@H]2O)[C@@H](CC=O)C[C@@H](C)C(=O)/C=C/C(C)=C/[C@@H]1CO[C@@H]1O[C@H](C)[C@@H](O)[C@@H](OC)[C@H]1OC
Resp: 35.1

====

- PROTOCOL_TEXT: chemical recovery from spiked human plasma; higher = better extraction
- CONDITION_SUMMARY: pooled human plasma; extraction method: PES+SPE (3 d PDMS equilibration then HLB SPE)
The entries below are paired with their reported chemical recovery.
Report field: quantity (unit follows the number).

> print(dat)
                                   molecule  measured.endpoint  result
1  N#Cc1c(O)c(Cl)c(Cl)c(C#N)c1Cl [Chlorothalonil-4-hydroxy]  chemical recovery   37.1%
2            Oc1ccc(Cl)cc1 [4-Chlorophenol]  chemical recovery   33.9%

Req: Item O=C1CCCCCCCCCCCN1 [Dodecane-12-lactam] has what recorded chemical recovery?
Resp: 47.4%

Req: Would you mind telling me what chemical recovery value was observed for Clc1ccc(Cl)c(-c2cccc(Cl)c2Cl)c1 [PCB44] ?
Resp: 44%

Req: What value of measured chemical recovery is listed for Cn1c(N)nc2ncc(-c3ccccc3)cc21 [2-Amino-1-methyl-6-phenylimidazo[4,5-b]pyridine-(PhIP)] ?
Resp: 49%

====

- PROTOCOL_TEXT: chemical recovery from spiked human plasma; higher = better extraction
- CONDITION_SUMMARY: pooled human plasma; extraction method: solvent precipitation (ACN + hexane)
Class Y: chemical recovery at least 70%. Class N: chemical recovery below 70%.

# example entries with known answers
> print(dat)
                                   compound  discrete.label
1  Oc1ccc2c(c1)[C@@]13CCCC[C@@]1(O)[C@@H](C2)N(CC1CCC1)CC3               N
2         Cc1ccc2cc3c(ccc4ccccc43)c3c2c1CC3               N
3  ClC1=C(Cl)[C@]2(Cl)[C@@H]3[C@@H]4C[C@@H]([C@H]5O[C@@H]45)[C@@H]3[C@@]1(Cl)C2(Cl)Cl               N
4          CC(C)N1C(=O)c2ccccc2N(C)S1(=O)=O               N
5                   N=C(Nc1ccccc1)Nc1ccccc1               N
6              C/C(=N\C#N)N(C)Cc1ccc(Cl)nc1               Y
7                                Cc1ccccc1N               N
8           COc1cc(Cc2cnc(N)nc2N)cc(OC)c1OC               Y

Req: Entry c1ccc2c(c1)c1cccc3ccc4cccc2c4c31 [Benzo(e)pyrene] : is its chemical recovery no less than 70%?
Resp: N

Req: Determine whether this compound has chemical recovery no lower than 70%: Brc1ccc(Oc2c(Br)cc(Br)cc2Br)c(Br)c1
Resp: N

Req: Is it the case that CCCCC(CC)COC(=O)C=Cc1ccc(OC)cc1 (centres undefined) [Octyl-methoxycinnamate] has chemical recovery reaching or exceeding 70%?
Resp: Y

Req: State whether the measured chemical recovery reaches 70%, counting equality as reaching it, for CCNc1nc(NCC)[nH]c(=O)n1 [Simazine-2-Hydroxy]
Resp: Y

Req: For this compound, is measured chemical recovery 70% or higher? Oc1cccc2n[nH]nc12 [4-Hydroxybenzotriazole]
Resp: N

Req: hey, is chemical recovery for this one >= 70%? CCCCC(CC)COC(=O)C(C#N)=C(c1ccccc1)c1ccccc1 (centres undefined)
Resp: N

Req: Could you please find out whether CC(C)Nc1nc(N)nc(Cl)n1 has chemical recovery that meets 70% or exceeds it?
Resp: N

Req: Is chemical recovery at least 70%? Consider NC(=O)c1c(Cl)c(Cl)cc(C(=O)O)c1Cl
Resp: N

Req: Is chemical recovery for O=C(/C=C/C=C/c1ccc2c(c1)OCO2)N1CCCCC1 at or above 70%?
Resp: Y

Req: Please tell me: is the compound CC(C)COC(=O)c1ccccc1C(=O)O [Mono-iso-butyl-phthalate] at or over 70% in terms of chemical recovery?
Resp: N

Req: Reported chemical recovery reaches at least 70% for Cc1cc(O)cc(C)c1[S+](C)[O-] (centres undefined) [Methiocarb-sulfoxide phenol] ?
Resp: Y

Req: In plain terms: is recorded chemical recovery at least 70% for CCCCC(CC)COP(=O)(OCC(CC)CCCC)OCC(CC)CCCC (centres undefined) [Tris(2-ethylhexl)phosphate] ?
Resp: Y

Req: Given O=S1OC[C@@H]2[C@H](CO1)[C@]1(Cl)C(Cl)=C(Cl)[C@]2(Cl)C1(Cl)Cl (stereo partly drawn) [beta-Endosulfan] , state whether its chemical recovery is at least 70%.
Resp: N

Req: Can CCCCCCCCCCS(=O)(=O)O be said to have chemical recovery at or above 70%?
Resp: N

====

- PROTOCOL_TEXT: chemical recovery from spiked human plasma; higher = better extraction
- CONDITION_SUMMARY: pooled human plasma; extraction method: solvent precipitation (ACN + hexane)
The label depends only on chemical recovery: 1 if it is at least 60%, 0 if it is smaller.

> print(dat)
                                   molecule  discrete.label
1  Oc1c(Cl)cc(-c2ccc(Cl)cc2)cc1Cl [4-Hydroxy-3,4',5-trichlorobiphenyl]               0
2  COc1ccccc1Oc1c(NS(=O)(=O)c2ccc(C(C)(C)C)cc2)nc(-c2ncccn2)nc1OCCO               1

Req: Determine whether measured chemical recovery meets or exceeds 60% for O=P1(N(CCCl)CCCl)NCCCO1 (stereo unspecified) [Cyclophosphamide]
Resp: 1

Req: Dear colleague, could you confirm whether CN1CCN2c3ncccc3Cc3ccccc3C2C1 (stereo unspecified) has chemical recovery at or above 60%?
Resp: 1

Cited source: the supplement of paper PMC10702517
